Source listed as patent US5274121A.

ASSAY_SYSTEM: muscarinic receptors, NG108-15 cell membranes (m3 AChR) (Mus musculus, UniProt P32211)
Construct: membranes from NG108-15 cells; endogenous in cells; host or cells: NG108-15 neuroblastoma x glioma hybrid cells (crude membrane fraction)
Sequence (P32211 whole entry): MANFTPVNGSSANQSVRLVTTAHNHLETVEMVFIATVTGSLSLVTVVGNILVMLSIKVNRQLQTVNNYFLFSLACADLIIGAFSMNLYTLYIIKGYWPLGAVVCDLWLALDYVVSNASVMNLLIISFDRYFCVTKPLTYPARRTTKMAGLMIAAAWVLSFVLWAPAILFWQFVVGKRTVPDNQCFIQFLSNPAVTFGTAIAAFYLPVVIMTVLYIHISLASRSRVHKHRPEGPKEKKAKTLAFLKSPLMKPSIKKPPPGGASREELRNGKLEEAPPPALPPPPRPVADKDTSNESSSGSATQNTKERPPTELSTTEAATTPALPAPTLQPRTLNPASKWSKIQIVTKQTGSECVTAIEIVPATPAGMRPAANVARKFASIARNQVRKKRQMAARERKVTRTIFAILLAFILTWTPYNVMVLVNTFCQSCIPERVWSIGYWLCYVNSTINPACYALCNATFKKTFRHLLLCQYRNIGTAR
METHOD_DESCRIPTION: Inhibition of [3H]-NMS binding to membranes from NG108-15 cells
SETTINGS: NG108-15 cells; conc. of compounds = 100 μM
REPORTED_ENDPOINT: inhibition at 100 µM (%)
Give the number; % is assumed, so skip it.

[in] Look at this molecule and give its reported inhibition at 100 µM. CN(CC#CCN1CCCC1)C(=O)CCCCCNC(=O)OC(C)(C)C
[out] 31.9

[in] Look at this molecule and give its reported inhibition at 100 µM. CN(CC#CCN1CCCC1)C(=O)CN
[out] 23.5

[in] Look at this molecule and give its reported inhibition at 100 µM. CC(=O)NCC(=O)N(C)CC#CCN1CCCC1
[out] 24

[in] Look at this molecule and give its reported inhibition at 100 µM. CC(=O)NCCCCC(=O)N(C)CC#CCN1CCCC1
[out] 17.9

[in] Look at this molecule and give its reported inhibition at 100 µM. CN(CC#CCN1CCCC1)C(=O)CCCCCN
[out] 37.9

[in] Look at this molecule and give its reported inhibition at 100 µM. CN(CC#CCN1CCCC1)C(=O)CCCCCCCNC(=O)OC(C)(C)C
[out] 89

[in] Look at this molecule and give its reported inhibition at 100 µM. CN(CC#CCN1CCCC1)C(=O)CCN
[out] 15.1

[in] Look at this molecule and give its reported inhibition at 100 µM. CN(CC#CCN1CCCC1)C(=O)CCCNC(=O)c1ccccc1
[out] 16

[in] Look at this molecule and give its reported inhibition at 100 µM. CN(CC#CCN1CCCC1)C(=O)CCCNC(=O)CNC(=O)OC(C)(C)C
[out] 5

[in] Look at this molecule and give its reported inhibition at 100 µM. CN(CC#CCN1CCCC1)C(=O)CCCCN
[out] 22.4

[in] Look at this molecule and give its reported inhibition at 100 µM. CN(CC#CCN1CCCC1)C(=O)CCCCCCN
[out] 72.1

[in] Look at this molecule and give its reported inhibition at 100 µM. CN(CC#CCN1CCCC1)C(=O)CNC(=O)OC(C)(C)C
[out] 32.6

[in] Look at this molecule and give its reported inhibition at 100 µM. CN(CC#CCN1CCCC1)C(=O)CCCN
[out] 12.1

[in] Look at this molecule and give its reported inhibition at 100 µM. CN(CC#CCN1CCCC1)C(=O)CCCCCNC(=O)c1ccccc1
[out] 35

[in] Look at this molecule and give its reported inhibition at 100 µM. CC(=O)NCCC(=O)N(C)CC#CCN1CCCC1
[out] 67.7

[in] Look at this molecule and give its reported inhibition at 100 µM. CN(CC#CCN1CCCC1)C(=O)CCCNC(=O)CCNC(=O)OC(C)(C)C
[out] 23

[in] Look at this molecule and give its reported inhibition at 100 µM. CN(CC#CCN1CCCC1)C(=O)CCCCCCCN
[out] 92.3

[in] Look at this molecule and give its reported inhibition at 100 µM. CN(CC#CCN1CCCC1)C(=O)CCNC(=O)OC(C)(C)C
[out] 36.3

[in] Look at this molecule and give its reported inhibition at 100 µM. CC(=O)N(C)C(C)C#CCN1CCCC1 (centres unmarked) [BM 5, reference compound]
[out] 97

[in] Look at this molecule and give its reported inhibition at 100 µM. CC(=O)NCCCC(=O)N(C)CC#CCN1CCCC1
[out] 19.1

[in] Look at this molecule and give its reported inhibition at 100 µM. CN(CC#CCN1CCCC1)C(=O)CCCCCNC(=O)CCNC(=O)OC(C)(C)C
[out] 51

[in] Look at this molecule and give its reported inhibition at 100 µM. CC(=O)NCCCCCCCC(=O)N(C)CC#CCN1CCCC1
[out] 50.4

[in] Look at this molecule and give its reported inhibition at 100 µM. C[N+](C)(C)CC#CCN1CCCC1=O [OXO-M, oxotremorine-M, reference compound]
[out] 96.2

[in] Look at this molecule and give its reported inhibition at 100 µM. CN(CC#CCN1CCCC1)C(=O)CCCCNC(=O)OC(C)(C)C
[out] 26.7

[in] Look at this molecule and give its reported inhibition at 100 µM. CN(CC#CCN1CCCC1)C(=O)CCCNC(=O)OC(C)(C)C
[out] 24.4

[in] Look at this molecule and give its reported inhibition at 100 µM. CC(=O)NCCCCCCC(=O)N(C)CC#CCN1CCCC1
[out] 20.4

[in] Look at this molecule and give its reported inhibition at 100 µM. CN(CC#CCN1CCCC1)C(=O)CCCCCNC(=O)CNC(=O)OC(C)(C)C
[out] 51

[in] Look at this molecule and give its reported inhibition at 100 µM. CN(CC#CCN1CCCC1)C(=O)CCCCCCNC(=O)OC(C)(C)C
[out] 77.9

[in] Look at this molecule and give its reported inhibition at 100 µM. CC(=O)NCCCCCC(=O)N(C)CC#CCN1CCCC1
[out] 22.7
